experiment: Permeability of the compound by PAMPA method at pH 7.4; assay type: ADME; settings: read-out: permeability
measured endpoint: Papp (×10⁻⁶ cm/s)

> print(dat)
                                    molecule  measured.endpoint  unit.abbreviation  recorded.result
 1            O=c1c2c([nH]c3c(F)cccc13)CCCC2               Papp         ×10⁻⁶ cm/s               17
 2       COc1ccc(OC)c2c(=O)c3c([nH]c12)CCCC3               Papp         ×10⁻⁶ cm/s                9
 3  O=c1c2c([nH]c3ccc([N+](=O)[O-])cc13)CCCC2               Papp         ×10⁻⁶ cm/s              6.9
 4              CN1CCc2[nH]c3ccccc3c(=O)c2C1               Papp         ×10⁻⁶ cm/s               21
 5    O=c1c2c([nH]c3cc(C(F)(F)F)ccc13)CCCCC2               Papp         ×10⁻⁶ cm/s              131
 6       CC1(C)CCc2[nH]c3ccc(Cl)cc3c(=O)c2C1               Papp         ×10⁻⁶ cm/s               63
 7           O=c1c2c([nH]c3cc(Br)ccc13)CCCC2               Papp         ×10⁻⁶ cm/s               70
 8            Cc1ccc2[nH]c3c(c(=O)c2c1)CCCC3               Papp         ×10⁻⁶ cm/s               19
 9  O=c1c2c([nH]c3cc([N+](=O)[O-])ccc13)CCCC2               Papp         ×10⁻⁶ cm/s               63
10      Cc1cccc2c(=O)c3c([nH]c12)CC(C)(C)CC3               Papp         ×10⁻⁶ cm/s               88
11     COc1ccc2[nH]c3c(c(=O)c2c1)CCC(C)(C)C3               Papp         ×10⁻⁶ cm/s              128
12          COc1cc2[nH]c3c(c(=O)c2cc1C)CSCC3               Papp         ×10⁻⁶ cm/s               68
13     COc1ccc2c(=O)c3c([nH]c2c1)CC(C)(C)CC3               Papp         ×10⁻⁶ cm/s               64
14     COc1cccc2c(=O)c3c([nH]c12)CCC(C)(C)C3               Papp         ×10⁻⁶ cm/s               95
15      Cc1cccc2[nH]c3c(c(=O)c12)CCC(C)(C)C3               Papp         ×10⁻⁶ cm/s              240
16     O=c1c2c([nH]c3cc(C(F)(F)F)ccc13)CCCC2               Papp         ×10⁻⁶ cm/s               73
17    O=c1c2c([nH]c3ccc(-c4ccncc4)cc13)CCSC2               Papp         ×10⁻⁶ cm/s               15
18     COc1cccc2[nH]c3c(c(=O)c12)CC(C)(C)CC3               Papp         ×10⁻⁶ cm/s               54
19  O=c1c2c([nH]c3cc(-c4c(F)cccc4F)ccc13)CCCC2               Papp         ×10⁻⁶ cm/s              339
20  O=c1c2c([nH]c3ccc(-c4ccc(COc5ccccc5)cc4)cc13)CCSC2               Papp         ×10⁻⁶ cm/s                7
21       CC1(C)CCc2c([nH]c3ccc(Cl)cc3c2=O)C1               Papp         ×10⁻⁶ cm/s               96
22            Cc1cccc2c(=O)c3c([nH]c12)CCCC3               Papp         ×10⁻⁶ cm/s               26
23       COc1cc(OC)c2[nH]c3c(c(=O)c2c1)CCCC3               Papp         ×10⁻⁶ cm/s               51
24  O=c1c2c([nH]c3ccc(-c4ccc(C(F)(F)F)cc4)cc13)CCCC2               Papp         ×10⁻⁶ cm/s               36
